IC50 values by entry
- subject-of-test: Integrin alpha-IIb/beta-3 (Homo sapiens, UniProt P08514+P05106)
- Sequence (P05106 27-788 limits assumed): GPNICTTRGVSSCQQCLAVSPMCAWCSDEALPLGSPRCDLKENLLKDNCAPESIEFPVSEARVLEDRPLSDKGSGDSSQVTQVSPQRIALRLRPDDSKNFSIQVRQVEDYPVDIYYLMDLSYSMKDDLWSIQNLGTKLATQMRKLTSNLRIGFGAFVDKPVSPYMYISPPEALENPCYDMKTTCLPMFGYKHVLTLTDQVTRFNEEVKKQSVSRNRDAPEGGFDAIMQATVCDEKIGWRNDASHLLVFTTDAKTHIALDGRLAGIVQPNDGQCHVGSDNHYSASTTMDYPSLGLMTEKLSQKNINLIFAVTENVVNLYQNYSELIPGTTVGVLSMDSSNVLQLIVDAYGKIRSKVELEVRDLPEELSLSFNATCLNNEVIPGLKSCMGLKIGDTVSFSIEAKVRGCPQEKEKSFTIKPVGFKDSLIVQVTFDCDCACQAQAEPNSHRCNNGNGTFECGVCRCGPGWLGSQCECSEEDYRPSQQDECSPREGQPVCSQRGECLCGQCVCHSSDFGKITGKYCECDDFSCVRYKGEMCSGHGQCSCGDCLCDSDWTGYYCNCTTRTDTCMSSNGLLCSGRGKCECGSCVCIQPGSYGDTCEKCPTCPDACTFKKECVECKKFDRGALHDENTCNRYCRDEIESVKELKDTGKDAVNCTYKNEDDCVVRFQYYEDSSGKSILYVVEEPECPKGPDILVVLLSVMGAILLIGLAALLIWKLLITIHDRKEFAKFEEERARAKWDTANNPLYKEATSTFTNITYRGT
- Sequence (P08514 32-887 limits assumed): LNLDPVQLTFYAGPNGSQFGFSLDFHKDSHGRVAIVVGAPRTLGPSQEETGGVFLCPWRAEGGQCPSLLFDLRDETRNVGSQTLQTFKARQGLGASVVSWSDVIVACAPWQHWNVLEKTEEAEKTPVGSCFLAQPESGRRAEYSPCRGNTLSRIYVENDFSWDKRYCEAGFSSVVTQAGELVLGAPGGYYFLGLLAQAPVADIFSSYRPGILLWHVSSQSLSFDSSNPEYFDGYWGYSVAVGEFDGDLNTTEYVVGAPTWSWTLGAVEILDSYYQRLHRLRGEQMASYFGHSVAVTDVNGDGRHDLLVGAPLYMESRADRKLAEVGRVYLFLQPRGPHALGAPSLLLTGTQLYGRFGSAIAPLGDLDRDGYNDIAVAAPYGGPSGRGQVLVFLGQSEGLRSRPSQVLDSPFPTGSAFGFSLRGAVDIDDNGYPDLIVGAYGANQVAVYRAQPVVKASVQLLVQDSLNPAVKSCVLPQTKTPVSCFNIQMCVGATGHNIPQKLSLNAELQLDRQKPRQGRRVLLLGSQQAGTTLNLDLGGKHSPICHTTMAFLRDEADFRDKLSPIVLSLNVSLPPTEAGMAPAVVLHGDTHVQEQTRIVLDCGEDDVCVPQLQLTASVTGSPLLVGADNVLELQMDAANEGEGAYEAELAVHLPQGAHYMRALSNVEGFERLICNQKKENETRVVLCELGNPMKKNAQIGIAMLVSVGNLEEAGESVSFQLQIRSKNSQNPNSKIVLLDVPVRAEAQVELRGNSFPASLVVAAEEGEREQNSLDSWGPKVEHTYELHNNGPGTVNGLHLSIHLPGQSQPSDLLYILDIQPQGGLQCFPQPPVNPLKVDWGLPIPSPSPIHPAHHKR
- Sequence (P08514 891-1039 limits assumed): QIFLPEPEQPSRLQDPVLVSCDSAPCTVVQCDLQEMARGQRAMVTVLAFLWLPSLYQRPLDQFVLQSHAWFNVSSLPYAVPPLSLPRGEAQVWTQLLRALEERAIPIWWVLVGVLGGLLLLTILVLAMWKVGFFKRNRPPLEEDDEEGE
- method-summary: Inhibition of ADP-induced platelet aggregation in human platelet-rich plasma
Where a SMILES comes first, the peptide text is derived from it. Bridges are numbered along the chain shown (N, C = ends).

Recorded results for 3 compounds are shown here.
Could you tell me which IC50 is on file for CC(C)[C@H]1NC(=O)CSC[C@@H](C(=O)O)NC(=O)[C@H](CC(=O)O)NC(=O)CNC(=O)[C@H](CCCNC(=N)N)NC1=O ? 8740 nM

How about this compound: CCC1SC[C@@H](C(=O)O)NC(=O)[C@H](CC(=O)O)NC(=O)CNC(=O)[C@H](CCCNC(=N)N)NC(=O)CNC1=O (some centres undefined) 4850 nM

How about this compound: N=C(N)NCCC[C@@H]1NC(=O)CNC(=O)C(c2ccc3ccccc3c2)SC[C@@H](C(=O)O)NC(=O)[C@H](CC(=O)O)NC(=O)CNC1=O (some centres undefined) 4000 nM

***
Could you tell me which IC50 is on file for N=C(N)NCCC[C@@H]1NC(=O)[C@H](CC(N)=O)NC(=O)CSC[C@@H](C(=O)O)NC(=O)[C@H](CC(=O)O)NC(=O)CNC1=O ({CH2CO}-NRGDC-OH; thioether N-5) ? 310 nM

How about this compound: CC(C)C[C@H](NC(=O)[C@H](CC(=O)O)NC(=O)CNC(=O)[C@@H](N)CCCNC(=N)N)C(=O)O (H-RGDL-OH) > 2000 nM

How about this compound: N=C(N)NCCC[C@@H]1NC(=O)CNC(=O)CSC[C@@H](C(N)=O)NC(=O)[C@H](CC(=O)O)NC(=O)CNC1=O ({CH2CO}-GRGDC-NH2; thioether N-5) 150000 nM

---

- subject-of-test: Integrin alpha-IIb/beta-3 (Homo sapiens, UniProt P08514+P05106)
- method-summary: Inhibition of ADP-induced platelet aggregation in human platelet-rich plasma
Where a SMILES comes first, the peptide text is derived from it. Bridges are numbered along the chain shown (N, C = ends). [ ]: non-standard residue; d: D form.
pIC50 values by entry
Entry type: numeric. Quantity: pIC50, the -log10 of concentration in molar units.

Could you tell me which pIC50 is on file for N=C(N)NCCC[C@H](NC(=O)CN)C(=O)NCC(=O)N[C@@H](CC(=O)O)C(=O)N[C@@H](Cc1ccc(O)cc1)C(=O)O (H-GRGDY-OH) ? 3.77

How about this molecule: N=C(N)NCCC[C@@H]1NC(=O)[C@H]2CCCN2C(=O)CSC[C@@H](C(=O)O)NC(=O)[C@H](CC(=O)O)NC(=O)CNC1=O ({CH2CO}-[dP]RGDC-OH; thioether N-5) 5.71

How about this molecule: CC(C)[C@H](NC(=O)[C@H](CC(=O)O)NC(=O)CNC(=O)[C@H](CCCNC(=N)N)NC(=O)CN)C(=O)O (H-GRGDV-OH) 4.12

# next molecule below
Could you tell me which pIC50 is on file for N=C(N)NCCC[C@@H]1NC(=O)[C@H](Cc2cnc[nH]2)NC(=O)CSC[C@@H](C(=O)O)NC(=O)[C@H](CC(=O)O)NC(=O)CNC1=O ? 6.27

---

- subject-of-test: Integrin alpha-IIb/beta-3 (Homo sapiens, UniProt P08514+P05106)
- method-summary: Inhibition of ADP-induced platelet aggregation in human platelet-rich plasma
Where a SMILES comes first, the peptide text is derived from it. Bridges are numbered along the chain shown (N, C = ends).
measured-endpoint: IC50 (nM)
Could you give me the number in nM? Just the number is fine.

Recorded results for 5 molecules are shown here.
Could you tell me which IC50 is on file for C[C@H](O)[C@H]1NC(=O)CSC[C@@H](C(=O)O)NC(=O)[C@H](CC(=O)O)NC(=O)CNC(=O)[C@H](CCCN=C(N)N)NC1=O ? 2920

How about this molecule: C[C@@H]1NC(=O)C[S+]([O-])C[C@@H](C(=O)O)NC(=O)[C@H](CC(=O)O)NC(=O)CNC(=O)[C@H](CCCNC(=N)N)NC1=O (stereo partly drawn) 610

How about this molecule: N=C(N)NCCC[C@@H]1NC(=O)[C@@H](Cc2cnc[nH]2)NC(=O)CSC[C@@H](C(=O)O)NC(=O)[C@H](CC(=O)O)NC(=O)CNC1=O 1080

How about this molecule: N=C(N)NCCC[C@@H]1NC(=O)[C@H](Cc2ccc(O)cc2)NC(=O)CSC[C@@H](C(N)=O)NC(=O)[C@H](CC(=O)O)NC(=O)CNC1=O ({CH2CO}-YRGDC-NH2; thioether N-5) 700

How about this molecule: N=C(N)NCCC[C@@H]1NC(=O)CNC(=O)C(c2ccccc2C(F)(F)F)SC[C@@H](C(=O)O)NC(=O)[C@H](CC(=O)O)NC(=O)CNC1=O (stereo partly drawn) 150

***
Could you tell me which IC50 is on file for N=C(N)NCCC[C@@H]1NC(=O)CCNC(=O)CSC[C@@H](C(=O)O)NC(=O)[C@H](CC(=O)O)NC(=O)CNC1=O ? 34300

How about this molecule: N=C(N)NCCC[C@@H]1NC(=O)[C@H](Cc2ccc(O)cc2)NC(=O)CSC[C@@H](C(=O)O)NC(=O)[C@H](CC(=O)O)NC(=O)CNC1=O ({CH2CO}-YRGDC-OH; thioether N-5) 150

How about this molecule: CSCC[C@@H]1NC(=O)CSC[C@@H](C(=O)O)NC(=O)[C@H](CC(=O)O)NC(=O)CNC(=O)[C@H](CCCNC(=N)N)NC1=O 1060
